B1: TPR 5TU (parent)
chain: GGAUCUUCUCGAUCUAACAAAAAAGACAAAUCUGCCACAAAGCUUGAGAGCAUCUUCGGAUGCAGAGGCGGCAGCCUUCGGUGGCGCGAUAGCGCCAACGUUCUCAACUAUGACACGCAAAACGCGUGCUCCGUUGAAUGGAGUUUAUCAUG

Variants of: B1
Assay text: polymerase ribozyme fitness, log enrichment relative to wild type (log ratio); higher = more active; in vitro selection for triplet polymerase activity
This sample holds only a part of the variants without activity.
Observed property: polymerase ribozyme fitness (log ratio)

In [3]: df
Out[3]:
                               mutant_code  bound_type  reported_result
 0            U9C A17U A30G G42C C51A C87U           ≤             -4.2
 1                          G58C U82G C99G           =            -1.45
 2                              A16U A106G           =             -1.8
 3                    A19C A24U C93U U135C           =            -2.84
 4                          C5A C85G C105U           =            -1.21
 5                          A47G G50C U82G           ≤             -4.2
 6                          A19U U53G C93G           ≤             -4.2
 7                    A26U A40U A91U A122U           ≤             -4.2
 8                               C51G C79A           ≤             -4.2
 9               A12C A17U U53A C96A U139G           =            -3.83
10            C54A U101G U134C U139G U144A           =            -1.85
11                         A47G G58C G112C           =            -3.97
12        A16U G86A A91U A106G C108U C129A           ≤             -4.2
13     A23C G46C A47G G84U C87A C93U U109G           ≤             -4.2
14        C57U U61A A89U A106G A122G A150G           =            -3.73
15  U15G C76G G86C A122U G133C A142G U148G           ≤             -4.2
16                    C35G U55G C85G U144A           ≤             -4.2
17                                     U9C           =            -1.27
18                               U33G A60G           =            -2.79
19                              G92A G100C           =            -4.07
20                     A24U A41G C69A C99G           =            -2.54
21                A12U U55A G59U A60G G94A           =         -0.00322

Ref: the RNAGym collection of RNA variant scans (doi:10.1073/pnas.2313332121)
